System: VIM-2 metallo-beta-lactamase (Pseudomonas aeruginosa)
Assay: inhibition of VIM-2 nitrocefin hydrolysis – biochemical, epi-absorbance readout, Pseudomonas aeruginosa enzyme, primary screen (AID 1527);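 note: red hydrolysis product quenches plate fluorescence so inhibitors raise well fluorescence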
Conditions: purified VIM-2, nitrocefin hydrolysis, epi-absorbance fluorescence; at 5.6 µM
Among all 290,000 compounds or so, about 2,600 (0.9%) were called active.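 Rule for the calls: active = inhibition above the mean of all tested compounds plus 3 SD, cutoff set per screening run (cut at about 7.5% in these data); inactive = the rest.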 This excerpt belongs to a sample that is enriched for actives.
Labels: active, inactive

* O=C(COc1cc2oc(=O)c3c(c2cc1Cl)CCC3)NCCCN1CCOCC1 | active
* CN1CCN(c2nc(Nc3ccc(O)cc3)nc3ccccc23)CC1 | active
* C=CCc1ccc(OCCOc2cccc(/C=N/n3cnnc3)c2)c(OC)c1 | inactive
* O=C(COc1ccc2c3c(c(=O)oc2c1)CCC3)NC1CCCCC1 | inactive
* COc1ccc(-c2nn3c(-c4ccccc4)nnc3s2)cc1OC | active
* COc1ccc(-n2c(-c3ccc(OC)c(OC)c3)n[nH]c2=S)cc1 | active
* COc1ccc(OCCn2ccnc2C)cc1 | inactive
* Cc1cccc(OCC(=O)NCCCNC(=O)c2ccccn2)c1 | inactive
* COC(=O)c1ccc(NC(=O)c2cc3c(CO)cnc(C)c3oc2=Nc2cccc(C(N)=O)c2)cc1 | inactive
* CCCCc1cc(=O)oc2c(C)c(OCC(=O)N3CCC(C(N)=O)CC3)ccc12 | inactive
* Cc1cc2occ(CC(=O)NNC(=O)c3ccccc3F)c2cc1C | inactive
* COc1cc(-c2nn3c(-c4cccc(C)c4)nnc3s2)cc(OC)c1OC | active
* CCOc1ccccc1-c1nc(CN2CCC(C(=O)N3CCOCC3)CC2)c(C)o1 | inactive
* COc1ccc(C(CNC(=O)COc2ccccc2OC)N2CCCCC2)cc1 (configuration not stated) | inactive
* COc1ccc(CC(=O)N/N=C(\C)c2ccccn2)cc1 | inactive
* Cc1ccc(-n2c(-c3ccc(Cl)cc3)n[nH]c2=S)cc1 | inactive
* COc1cccc(CNC(=O)Cn2c(=O)oc3cc(S(=O)(=O)N4CCCCC4)ccc32)c1 | inactive
* NC(=O)COc1ccc2c3c(c(=O)oc2c1)CCCCC3 | active
* CC1CCCCC1NC(=O)CCS(=O)(=O)c1ccc2c(c1)NC(=O)CO2 (configuration not stated) | inactive
* CCc1cc(=O)oc2c(C)c(OCC(=O)NCCN3CCOCC3)ccc12 | inactive
* O=C1/C(=C/c2ccc3c(c2)OCO3)Oc2cc(OCC(=O)N3CC(O)C[C@H]3C(=O)O)ccc21 (some centres not stated) | inactive
* COc1ccc(OC)c(-n2c(-c3ccn[nH]3)n[nH]c2=S)c1 | inactive
